Examples of compounds with documented IC50 follow.
Target: UniProt:Q9UM07
Experiment: Ammonia Release Biochemical Assay (citrullination detected via ammonia release)
Details: PAD4 120 nM, substrate BAEE, 60-min preincubation, read-out: NH3 release

# count of solved cases: 3
{"columns": ["compound", "target under test", "experimental readout", "val"],
 "data": [
  ["N[C@@H]1CCCN(C(=O)c2cc3c4c(c2)nc(-c2cc5ccc(F)cc5n2Cc2ncccc2F)n4CCO3)C1 [Example 35]", "UniProt:Q9UM07", "IC50", "≤ 1000 nM"],
  ["CN1CCn2c(-c3cc4cc(F)ccc4n3CC3CC3)nc3cc(C(=O)N4CCC[C@@H](N)C4)cc1c32 [Example 75]", "UniProt:Q9UM07", "IC50", "≤ 1000 nM"],
  ["N[C@@H]1CCCN(C(=O)c2cc3c4c(c2)nc(-c2cc5ccccc5n2CC2CC2)n4CCN3S(=O)(=O)CCc2ccccc2)C1 [Example 79]", "UniProt:Q9UM07", "IC50", "1000 to 10000 nM"]
]}

For this compound ( N[C@@H]1CCCN(C(=O)c2cc3c4c(c2)nc(-c2cc5ccccc5n2Cc2ccncc2F)n4CCO3)C1 [Example 24] ), measured IC50 is ≤ 1000 nM

###

Examples of molecules with documented IC50 follow.
Biological target: PAD4 enzyme (Homo sapiens (Human), UniProt Q9UM07)
Sequence (Q9UM07 whole entry): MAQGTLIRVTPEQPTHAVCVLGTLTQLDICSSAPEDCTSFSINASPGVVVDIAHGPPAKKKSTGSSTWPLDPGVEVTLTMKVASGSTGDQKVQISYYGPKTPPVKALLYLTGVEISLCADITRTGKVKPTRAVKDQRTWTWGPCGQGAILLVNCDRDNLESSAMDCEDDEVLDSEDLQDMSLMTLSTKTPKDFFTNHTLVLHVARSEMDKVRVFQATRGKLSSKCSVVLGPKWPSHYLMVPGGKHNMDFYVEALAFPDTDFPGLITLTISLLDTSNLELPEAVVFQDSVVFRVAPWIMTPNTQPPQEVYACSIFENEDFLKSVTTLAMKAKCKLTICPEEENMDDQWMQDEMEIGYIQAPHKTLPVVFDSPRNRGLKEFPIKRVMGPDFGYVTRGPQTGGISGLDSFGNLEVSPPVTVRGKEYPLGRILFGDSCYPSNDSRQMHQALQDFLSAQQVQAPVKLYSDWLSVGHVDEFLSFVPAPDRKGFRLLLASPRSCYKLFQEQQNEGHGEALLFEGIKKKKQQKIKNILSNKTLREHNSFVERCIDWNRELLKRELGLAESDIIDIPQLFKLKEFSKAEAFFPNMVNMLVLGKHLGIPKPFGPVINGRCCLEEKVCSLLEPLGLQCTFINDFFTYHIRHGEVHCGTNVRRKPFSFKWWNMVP
Assay: Ammonia Release Biochemical Assay (citrullination detected via ammonia release)
Settings: PAD4 120 nM, substrate BAEE, 60-min preincubation, read-out: NH3 release

{"columns": ["item smiles", "IC50"],
 "data": [
  ["N[C@@H]1CCCN(C(=O)c2cc3c4c(c2)nc(-c2cc5ccccc5n2Cc2cccnc2)n4CCN3)C1", "≤ 1000 nM"]
]}

For this molecule ( N[C@@H]1CCCN(C(=O)c2cc3c4c(c2)nc(-c2cc5cc(-c6cccnc6)ccc5n2CC2CC2)n4CCN3)C1 ), measured IC50 is 1000 to 10000 nM

For this molecule ( N[C@@H]1CCCN(C(=O)c2cc3c4c(c2)nc(-c2cc5cc(F)ccc5n2CC2CC2)n4CCO3)C1 ), measured IC50 is ≤ 1000 nM

For this molecule ( N[C@@H]1CCCN(C(=O)c2cc3c4c(c2)nc(-c2cc5ccccc5n2CC(=O)O)n4CCO3)C1 ), measured IC50 is ≥ 10000 nM

###

Molecular target: PAD4 enzyme (Homo sapiens (Human), UniProt Q9UM07)
Test: Ammonia Release Biochemical Assay (citrullination detected via ammonia release)
Conditions: PAD4 120 nM, substrate BAEE, 60-min preincubation, read-out: NH3 release
pIC50: −log10 of the molar value.
experimental readout: pIC50

{"columns": ["molecule", "target under test", "pIC50"],
 "data": [
  ["N[C@@H]1CCCN(C(=O)c2cc3c4c(c2)nc(-c2cc5ccccc5n2CC2COC2)n4CCO3)C1 [Example 44]", "PAD4 enzyme (Homo sapiens (Human), UniProt Q9UM07)", "5.00 to 6.00"]
]}

For this molecule ( N[C@@H]1CCCN(C(=O)c2cc3c4c(c2)nc(-c2cc5cccc(Cl)c5n2Cc2cncnc2)n4CCO3)C1 [Example 88] ), measured pIC50 is 5.00 to 6.00

###

Molecular target: PAD4 enzyme (Homo sapiens (Human))
Assay: Ammonia Release Biochemical Assay (citrullination detected via ammonia release)
Details: PAD4 120 nM, substrate BAEE, 60-min preincubation, read-out: NH3 release
experimental readout: IC50

{"columns": ["item smiles", "IC50"],
 "data": [
  ["N[C@@H]1CCCN(C(=O)c2cc3c4c(c2)nc(-c2cc5ccc(F)c(Cl)c5n2CC2CC2)n4CCO3)C1", "≤ 1 µM"],
  ["COc1cc2cc(-c3nc4cc(C(=O)N5CCC[C@@H](N)C5)cc5c4n3CCO5)n(CC3CC3)c2cc1OC", "≤ 1 µM"]
]}

For this compound ( CS(=O)(=O)N1CCn2c(-c3cc4ccccc4n3CC3CC3)nc3cc(C(=O)N4CCC[C@@H](N)C4)cc1c32 ), measured IC50 is ≤ 1 µM

For this compound ( N[C@@H]1CCCN(C(=O)c2cc3c4c(c2)nc(-c2cc5cc(F)c(F)cc5n2CC2CC2)n4CCO3)C1 ), measured IC50 is ≤ 1 µM

For this compound ( CN1CCC(Cn2c(-c3nc4cc(C(=O)N5CCC[C@@H](N)C5)cc5c4n3CCO5)cc3ccccc32)CC1 ), measured IC50 is ≥ 10 µM
